- method.description: in vivo
- run.parameters: CD1 nude, mouse, 0.5 nmol/mouse, total radioactivity, Heart uptake
Provide the recorded tissue uptake at 24 h for the entries that follow.
Answer with a number only, understood to be in %ID/g.

## Input // returns reported tissue uptake at 24 h for input Cc1ccc(CCCC(=O)NCCOCCOCCOCCOCCC(=O)NCCCC[C@H](NC(=O)CC[C@H](C(=O)O)N2CCN(CC(=O)O)CCN(CC(=O)O)CCN(CC(=O)O)CC2)C(=O)N[C@@H](CC(=O)O)C(=O)N[C@@H](CC2CCCCC2)C(=O)N[C@@H](Cc2ccccc2)C(=O)N[C@H](CO)C(=O)N[C@H](CCCNC(=N)N)C(=O)N[C@@H](Cc2ccc(O)cc2)C(=O)N[C@@H](CC(C)C)C(=O)N[C@@H](Cc2c[nH]c3ccccc23)C(=O)N[C@@H](CO)C(N)=O)cc1 [[^177Lu]Lu-uPAR-17, metal not drawn]
## Output 0.07

## Input Now this one: Cc1ccc(CCCC(=O)NCCOCCOCCOCCOCCOCCC(=O)NCCCC[C@H](NC(=O)CN2CCN(CC(=O)O)CCN(CC(=O)O)CCN(CC(=O)O)CC2)C(=O)N[C@@H](CC(=O)O)C(=O)N[C@@H](CC2CCCCC2)C(=O)N[C@@H](Cc2ccccc2)C(=O)N[C@H](CO)C(=O)N[C@H](CCCNC(=N)N)C(=O)N[C@@H](Cc2ccc(O)cc2)C(=O)N[C@@H](CC(C)C)C(=O)N[C@@H](Cc2c[nH]c3ccccc23)C(=O)N[C@@H](CO)C(N)=O)cc1 [[^177Lu]Lu-uPAR-18, metal not drawn]
## Output 0.12

* * *

- system.under.test: mouse serum albumin (Mus musculus, UniProt P07724)
- Construct: tissue Rockland Immunochemicals Inc., USA Lot: 32321; host or cells: mouse blood plasma
- Sequence (P07724 25-608): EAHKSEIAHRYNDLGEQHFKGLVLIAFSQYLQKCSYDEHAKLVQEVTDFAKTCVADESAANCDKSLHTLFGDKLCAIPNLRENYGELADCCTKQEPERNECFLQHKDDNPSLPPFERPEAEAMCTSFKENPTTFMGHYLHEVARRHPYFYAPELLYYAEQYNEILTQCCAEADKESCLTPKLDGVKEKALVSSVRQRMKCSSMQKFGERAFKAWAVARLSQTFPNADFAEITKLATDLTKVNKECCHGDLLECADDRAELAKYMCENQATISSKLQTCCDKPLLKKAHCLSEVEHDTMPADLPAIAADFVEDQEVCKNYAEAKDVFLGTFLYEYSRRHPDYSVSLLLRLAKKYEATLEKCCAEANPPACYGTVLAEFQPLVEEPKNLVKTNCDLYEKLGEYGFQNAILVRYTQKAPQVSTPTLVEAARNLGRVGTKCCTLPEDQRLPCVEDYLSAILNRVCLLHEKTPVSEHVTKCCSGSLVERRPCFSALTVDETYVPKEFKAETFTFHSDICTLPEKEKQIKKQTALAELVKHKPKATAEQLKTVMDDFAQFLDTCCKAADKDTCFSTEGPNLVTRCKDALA
- Assay type: in vitro ADME
measured.quantity: Albumin-binding properties, relative values (inverse B50 ratio)
Answer as a number with no unit attached.

## Input // returns reported Albumin-binding properties, relative values (inverse B50 ratio) for input Cc1ccc(CCCC(=O)NCCOCCOCCOCCC(=O)NCCCC[C@H](NC(=O)CN2CCN(CC(=O)O)CCN(CC(=O)O)CCN(CC(=O)O)CC2)C(=O)N[C@@H](CC(=O)O)C(=O)N[C@@H](CC2CCCCC2)C(=O)N[C@@H](Cc2ccccc2)C(=O)N[C@H](CO)C(=O)N[C@H](CCCNC(=N)N)C(=O)N[C@@H](Cc2ccc(O)cc2)C(=O)N[C@@H](CC(C)C)C(=O)N[C@@H](Cc2c[nH]c3ccccc23)C(=O)N[C@@H](CO)C(N)=O)cc1 [[^177Lu]Lu-uPAR-15, metal not drawn]
## Output 0.77

## Input Now this one: Cc1ccc(CCCC(=O)NCCOCCOCCOCCOCCC(=O)NCCCC[C@H](NC(=O)CC[C@H](C(=O)O)N2CCN(CC(=O)O)CCN(CC(=O)O)CCN(CC(=O)O)CC2)C(=O)N[C@@H](CC(=O)O)C(=O)N[C@@H](CC2CCCCC2)C(=O)N[C@@H](Cc2ccccc2)C(=O)N[C@H](CO)C(=O)N[C@H](CCCNC(=N)N)C(=O)N[C@@H](Cc2ccc(O)cc2)C(=O)N[C@@H](CC(C)C)C(=O)N[C@@H](Cc2c[nH]c3ccccc23)C(=O)N[C@@H](CO)C(N)=O)cc1 [[^177Lu]Lu-uPAR-17, metal not drawn]
## Output 0.77

## Input Now this one: Cc1ccc(CCCC(=O)NCCOCCOCCOCCOCCC(=O)NC[C@H](NC(=O)CN2CCN(CC(=O)O)CCN(CC(=O)O)CCN(CC(=O)O)CC2)C(=O)N[C@@H](CC(=O)O)C(=O)N[C@@H](CC2CCCCC2)C(=O)N[C@@H](Cc2ccccc2)C(=O)N[C@H](CO)C(=O)N[C@H](CCCNC(=N)N)C(=O)N[C@@H](Cc2ccc(O)cc2)C(=O)N[C@@H](CC(C)C)C(=O)N[C@@H](Cc2c[nH]c3ccccc23)C(=O)N[C@@H](CO)C(N)=O)cc1 [[^177Lu]Lu-uPAR-14, metal not drawn]
## Output 0.66

* * *

- method.description: Biodistribution in HEK-uPAR xenografted nude mice
- run.parameters: CD1 nude, mouse, bone, 0.5 nmol/mouse, total radioactivity, Bone uptake, 1 h p.i.; decay-corrected
measured.quantity: tissue uptake at 1 h (%ID/g)
Answer with a number only, understood to be in %ID/g.

## Input // returns reported tissue uptake at 1 h for input CC(C)C[C@H](NC(=O)[C@H](Cc1ccc(O)cc1)NC(=O)[C@@H](CCCNC(=N)N)NC(=O)[C@@H](CO)NC(=O)[C@H](Cc1ccccc1)NC(=O)[C@H](CC1CCCCC1)NC(=O)[C@H](CC(=O)O)NC(=O)CN1CCN(CC(=O)O)CCN(CC(=O)O)CCN(CC(=O)O)CC1)C(=O)N[C@@H](Cc1c[nH]c2ccccc12)C(=O)N[C@@H](CO)C(N)=O [[^177Lu]Lu-DOTA-AE105, metal not drawn]
## Output 0.35

* * *

- method.description: in vivo
- run.parameters: CD1 nude, mouse, 0.5 nmol/mouse, total radioactivity, Heart uptake
tissue uptake at 4 h vs 2 %ID/g: less than gives true; not less than gives false.

## Input Confirm or reject: tissue uptake at 4 h of Cc1ccc(CCCC(=O)NCCOCCOCCOCCC(=O)NCCCC[C@H](NC(=O)CN2CCN(CC(=O)O)CCN(CC(=O)O)CCN(CC(=O)O)CC2)C(=O)N[C@@H](CC(=O)O)C(=O)N[C@@H](CC2CCCCC2)C(=O)N[C@@H](Cc2ccccc2)C(=O)N[C@H](CO)C(=O)N[C@H](CCCNC(=N)N)C(=O)N[C@@H](Cc2ccc(O)cc2)C(=O)N[C@@H](CC(C)C)C(=O)N[C@@H](Cc2c[nH]c3ccccc23)C(=O)N[C@@H](CO)C(N)=O)cc1 [[^177Lu]Lu-uPAR-15, metal not drawn] lies strictly below 2 %ID/g
## Output true

## Input Now this one: Cc1ccc(CCCC(=O)NCCOCCOCCOCCOCCC(=O)NC[C@H](NC(=O)CN2CCN(CC(=O)O)CCN(CC(=O)O)CCN(CC(=O)O)CC2)C(=O)N[C@@H](CC(=O)O)C(=O)N[C@@H](CC2CCCCC2)C(=O)N[C@@H](Cc2ccccc2)C(=O)N[C@H](CO)C(=O)N[C@H](CCCNC(=N)N)C(=O)N[C@@H](Cc2ccc(O)cc2)C(=O)N[C@@H](CC(C)C)C(=O)N[C@@H](Cc2c[nH]c3ccccc23)C(=O)N[C@@H](CO)C(N)=O)cc1 [[^177Lu]Lu-uPAR-14, metal not drawn]
## Output true

## Input Now this one: Cc1ccc(CCCC(=O)NCCOCCOCCOCCOCCC(=O)NCCCC[C@H](NC(=O)CC[C@H](C(=O)O)N2CCN(CC(=O)O)CCN(CC(=O)O)CCN(CC(=O)O)CC2)C(=O)N[C@@H](CC(=O)O)C(=O)N[C@@H](CC2CCCCC2)C(=O)N[C@@H](Cc2ccccc2)C(=O)N[C@H](CO)C(=O)N[C@H](CCCNC(=N)N)C(=O)N[C@@H](Cc2ccc(O)cc2)C(=O)N[C@@H](CC(C)C)C(=O)N[C@@H](Cc2c[nH]c3ccccc23)C(=O)N[C@@H](CO)C(N)=O)cc1 [[^177Lu]Lu-uPAR-17, metal not drawn]
## Output false

## Input Now this one: Cc1ccc(CCCC(=O)NCCOCCOCCOCCOCCC(=O)NCCCC[C@H](NC(=O)CN2CCN(CC(=O)O)CCN(CC(=O)O)CCN(CC(=O)O)CC2)C(=O)N[C@@H](CC(=O)O)C(=O)N[C@@H](CC2CCCCC2)C(=O)N[C@@H](Cc2ccccc2)C(=O)N[C@H](CO)C(=O)N[C@H](CCCNC(=N)N)C(=O)N[C@@H](Cc2ccc(O)cc2)C(=O)N[C@@H](CC(C)C)C(=O)N[C@@H](Cc2c[nH]c3ccccc23)C(=O)N[C@@H](CO)C(N)=O)cc1 [[^177Lu]Lu-uPAR-11, metal not drawn]
## Output true

## Input Now this one: Cc1ccc(CCCC(=O)NCCOCCOCCOCCOCCOCCC(=O)NCCCC[C@H](NC(=O)CN2CCN(CC(=O)O)CCN(CC(=O)O)CCN(CC(=O)O)CC2)C(=O)N[C@@H](CC(=O)O)C(=O)N[C@@H](CC2CCCCC2)C(=O)N[C@@H](Cc2ccccc2)C(=O)N[C@H](CO)C(=O)N[C@H](CCCNC(=N)N)C(=O)N[C@@H](Cc2ccc(O)cc2)C(=O)N[C@@H](CC(C)C)C(=O)N[C@@H](Cc2c[nH]c3ccccc23)C(=O)N[C@@H](CO)C(N)=O)cc1 [[^177Lu]Lu-uPAR-18, metal not drawn]
## Output true

## Input Now this one: Cc1ccc(CCCC(=O)NCCCCCCCC(=O)NCCCC[C@H](NC(=O)CN2CCN(CC(=O)O)CCN(CC(=O)O)CCN(CC(=O)O)CC2)C(=O)N[C@@H](CC(=O)O)C(=O)N[C@@H](CC2CCCCC2)C(=O)N[C@@H](Cc2ccccc2)C(=O)N[C@H](CO)C(=O)N[C@H](CCCNC(=N)N)C(=O)N[C@@H](Cc2ccc(O)cc2)C(=O)N[C@@H](CC(C)C)C(=O)N[C@@H](Cc2c[nH]c3ccccc23)C(=O)N[C@@H](CO)C(N)=O)cc1 [[^177Lu]Lu-uPAR-12, metal not drawn]
## Output false
